Test system: chloroquine-resistant K1 strain of P. falciparum
Experiment: 48-h sensitivity assay, [3H]-hypoxanthine incorporation as an assessment of parasite growth
Type: cell-based
Settings: Plasmodium falciparum, K1, 48 h, mean of the determinations, K1 strain, 48 h; read-out: Mean IC50
valueType: pIC50
Note on pIC50: it is the negative log10 of concentration, concentration in mol/L.

* CO[C@H]1O[C@@H]2O[C@@]3(C)CC[C@H]4[C@H](C)CC[C@@H]([C@H]1C)[C@@]24OO3 [Artemether, artemether, reference compound] | 8.55

Moving on to another compound below.
Please tell me: pIC50 of C[C@@H]1CC[C@H]2[C@@H](C)C(=O)O[C@@H]3O[C@@]4(C)CC[C@@H]1[C@]32OO4 [Artemisinin, reference compound] , system chloroquine-resistant K1 strain of P. falciparum?
7.91

meta.source: patent US20050070595A1
